Assay text: collision cross section in nitrogen (drift tube, single-field); higher = larger gas-phase ion size;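 note: chemical standards at 10 µM analysed by drift tube IMS-QTOF MS in about 3.95 torr nitrogen, mean of duplicate injections differing ≤1%, mass error below 10 ppm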
Run parameters: ion type: [M+H]; ion source: ESI; ion mode: Positive
Each item that follows carries a reported collision cross section in nitrogen.
Numeric only. Scale: Å²

Worked examples, 10 compounds total:
OCCc1ccncc1 [2-(Pyridin-4-yl)ethanol] :: 124.3
CCCCc1ccc2c(n1)[C@@H](c1ccc(OC)cc1C[C@H](C)C(=O)O)[C@H](C(=O)O)[C@H]2c1ccc2c(c1)OCO2 [MK-547] :: 230.9
CCOC(=O)C(Cl)Cc1cc(-n2nc(C)n(C(F)F)c2=O)c(F)cc1Cl (stereo not drawn) [Carfentrazone-ethyl] :: 180.3
O=C1OC2(c3ccccc31)c1cc(Br)c(O)c(Br)c1Oc1c2cc(Br)c(O)c1Br [2',4',5',7'-Tetrabromofluorescein] :: 204.7
NC(=O)c1ccc(N)cc1 [4-Aminobenzamide] :: 126.5
CNC(=O)N(C)c1nc2ccccc2s1 [Methabenzthiazuron] :: 144.7
CCS(=O)(=O)CCSP(=O)(OC)OC [Demeton-S-methyl sulfone] :: 145
CCc1c(C(=O)O)c(=O)cnn1-c1ccc(Cl)cc1 [Clofencet-potassium] :: 159
CC=CC(=O)N(CC)c1ccccc1C [Crotamiton] :: 145.7
CCN(CC)c1ccc2cc(-c3nc4cc(S(N)(=O)=O)ccc4o3)c(=O)oc2c1 :: 205.5

## Input Could you tell me which collision cross section in nitrogen is on file for CCOc1ccc(N=Nc2ccc(C=Cc3ccc(N=Nc4ccc(OCC)cc4)cc3S(=O)(=O)O)c(S(=O)(=O)O)c2)cc1 [C.I. Direct Yellow 12] ?
## Output 278.7

## Input Next: CCOc1ccc(NC(=O)CC(C)O)cc1 (stereo not drawn) [3-Hydroxy-4-butyrophenetidide]
## Output 155.6

---

Each item that follows carries a reported collision cross section in nitrogen.
Assay text: collision cross section in nitrogen (drift tube, single-field); higher = larger gas-phase ion size
Run parameters: ion type: [M+H]; ion source: ESI; ion mode: Positive
Numeric only. Scale: Å²

Worked examples, 10 compounds total:
Cc1cc(C2CC2)nc(Nc2ccccc2)n1 [Cyprodinil] :: 153.4
O=C1OC2(c3ccccc31)c1ccc(O)c(Br)c1Oc1c2ccc(O)c1Br [C.I. Solvent Red 72] :: 185
CC(C)(C)c1ccc(N)cc1 [4-tert-Butylaniline] :: 147.6
CCNc1nc(NCC)nc(SC)n1 [Simetryn] :: 149.5
Nc1ccc(S(=O)(=O)c2ccc(N)cc2)cc1 [Dapsone] :: 155
S=c1[nH]c2ccccc2[nH]1 [2-Mercaptobenzimidazole] :: 127.8
COc1ccc(Nc2ccccc2)c(C)c1 [4-Methoxy-2-methyl-N-phenylaniline] :: 150.5
Cc1cnc(NC(=O)C2=C(O)c3ccccc3S(=O)(=O)N2C)s1 [Meloxicam] :: 178.5
COc1ccccc1NC(=O)c1cc2ccccc2cc1O [3-Hydroxy-2-naphthoic o-anisidide] :: 167.5
O=C(N[C@H]1CN2CCC1CC2)c1cc2ccoc2cn1 [(R)-N-(Quinuclidin-3-yl)furo(2,3-C)pyridine-5-carboxamide] :: 168

## Input Could you tell me which collision cross section in nitrogen is on file for CCOc1ccc2c(c1)C(C)=CC(C)(C)N2 [Ethoxyquin] ?
## Output 153.2

## Input Next: CC(O)CN(CC(C)O)CC(C)O (stereo not given) [Triisopropanolamine]
## Output 141.5

## Input Next: CCOC(=O)[C@@H](C)Oc1ccc(Oc2nc3ccc(Cl)cc3o2)cc1 [Fenoxaprop-P-ethyl]
## Output 189.5

## Input Next: Nc1ccc(Oc2ccc(N)cc2)cc1 [4,4'-Oxydianiline]
## Output 160.7

## Input Next: CO/N=C(/C1=NOCCO1)c1ccccc1Oc1ncnc(Oc2ccccc2Cl)c1F [Fluoxastrobin]
## Output 204.3

---

Assay text: collision cross section in nitrogen (drift tube, single-field); higher = larger gas-phase ion size
Run parameters: ion type: [M+Na]; ion source: ESI; ion mode: Positive
I would appreciate it if you labelled entries label 1 when collision cross section in nitrogen is 200 Å² or higher, otherwise label 0.

# example entries with known answers
Cc1cccc2sc3nncn3c12 [2,7,8,9-Tricyclazole] :: label 0
O=C(O)CCN(C1(C(=O)NO)CCCC1)S(=O)(=O)c1ccc(Oc2ccc(F)cc2)cc1 :: label 1

## Input Evaluate COCCCOc1ccnc(CS(=O)c2nc3ccccc3[nH]2)c1C (stereo not given) [Rabeprazole sodium] : collision cross section in nitrogen at minimum 200 Å²?
## Output label 0

## Input Next: NC(=O)N1c2ccccc2C=Cc2ccccc21 [Carbamazepine]
## Output label 0

## Input Next: CCCCNS(=O)(=O)c1ccc(C)cc1 [N-Butyl-p-toluenesulfonamide]
## Output label 0

---

Assay text: collision cross section in nitrogen (drift tube, single-field); higher = larger gas-phase ion size
Run parameters: ion type: [M+H]; ion source: ESI; ion mode: Positive
Counter-ions that a name gives are not always drawn.
Observation type: collision cross section in nitrogen (Å²)
Numeric only. Scale: Å²

COC(=O)c1ccc(I)cc1S(=O)(=O)NC(=O)Nc1nc(C)nc(OC)n1 [Iodosulfuron methyl ester sodium salt] :: 194.2
CCNc1nc(Cl)nc(NC(C)(C)C)n1 :: 153.8

## Input Could you tell me which collision cross section in nitrogen is on file for CCCCCCCCCCCCN(CCO)CCO ?
## Output 184.1

## Input Next: CCOC(=O)CP(=O)(OCC)OCC [Triethyl phosphonoacetate]
## Output 143.7

## Input Next: O=P1(NCCCl)OCCCN1CCCl (configuration not stated) [Ifosfamide]
## Output 148.8

## Input Next: COc1cc(-c2ccc(N)c(OC)c2)ccc1N [C.I. Disperse Black 6 dihydrochloride]
## Output 169.9

## Input Next: CCC(=NOC/C=C/Cl)C1=C(O)CC(C2CCOCC2)CC1=O (configuration not stated)
## Output 185.8

---

Assay text: collision cross section in nitrogen (drift tube, single-field); higher = larger gas-phase ion size
Run parameters: ion type: [M+Na]; ion source: ESI; ion mode: Positive
Each item that follows carries a reported collision cross section in nitrogen.
Numeric only. Scale: Å²

CCCCCCCCOC(=O)c1ccccc1C(=O)O [Octyl hydrogen phthalate] :: 181.5
CCCC1O[C@@H]2C[C@H]3[C@@H]4CCC5=CC(=O)C=C[C@]5(C)[C@H]4[C@@H](O)C[C@]3(C)[C@]2(C(=O)CO)O1 (some centres undefined) [Budesonide] :: 230.4
Nc1ccc(S(=O)(=O)Nc2nccs2)cc1 :: 167.5

Turning now to a further record.
## Input Could you tell me which collision cross section in nitrogen is on file for CCCCCCC(C)Nc1ccc(Nc2ccccc2)cc1 (centres undefined) ?
## Output 190

---

Assay text: collision cross section in nitrogen (drift tube, single-field); higher = larger gas-phase ion size
Run parameters: ion type: [M+Na]; ion source: ESI; ion mode: Positive
Observation type: collision cross section in nitrogen (Å²)
Numeric only. Scale: Å²

Worked examples, 2 molecules total:
CC1(C)S[C@@H]2[C@H](NC(=O)COc3ccccc3)C(=O)N2[C@H]1C(=O)O :: 184.1
O=C1CCCN1C1CCCCC1 :: 157.7

Turning now to a further record.
## Input Could you tell me which collision cross section in nitrogen is on file for CCCCOC(=O)CCCCC(=O)OCCCC [Dibutyl adipate] ?
## Output 180.8

---

Each item that follows carries a reported collision cross section in nitrogen.
Assay text: collision cross section in nitrogen (drift tube, single-field); higher = larger gas-phase ion size
Run parameters: ion type: [M+Na]; ion source: ESI; ion mode: Positive
// unit must come after the numeric part

Worked examples, 3 compounds total:
CCCCOP(=O)(CCCC)OCCCC [Dibutyl butylphosphonate] :: 181.8 Å²
CCOc1ccc(NC(=O)CC(C)O)cc1 (stereo not drawn) [3-Hydroxy-4-butyrophenetidide] :: 169.5 Å²
COc1ccccc1OCC(O)COC(N)=O (stereo not drawn) :: 154.6 Å²

## Input Could you tell me which collision cross section in nitrogen is on file for CCCCCCCC/C=C/CCCCCCCC(=O)OCC(O)CO (stereo not drawn) [trans-Monoelaidin] ?
## Output 199 Å²

## Input Next: O=P(c1ccccc1)(c1ccccc1)c1ccccc1 [Triphenylphosphine oxide]
## Output 182.6 Å²

## Input Next: COc1ccc2sc(C(=O)Nc3nnn[nH]3)c(OC(C)C)c2c1
## Output 190.1 Å²

## Input Next: CC1(C)CCC(Cc2ccc(Cl)cc2)C1(O)Cn1cncn1 (stereo not drawn)
## Output 176.1 Å²

## Input Next: CC(C)(C)[C@H](O)[C@H](Cc1ccc(Cl)cc1)n1cncn1
## Output 189.4 Å²

---

Assay text: collision cross section in nitrogen (drift tube, single-field); higher = larger gas-phase ion size
Run parameters: ion type: [M+H]; ion source: ESI; ion mode: Positive
Each item that follows carries a reported collision cross section in nitrogen.
Numeric only. Scale: Å²

Worked examples, 10 molecules total:
S=C(NC1CCCCC1)NC1CCCCC1 :: 162.9
O=C(O)c1cn(-c2ccc(F)cc2)c2cc(N3CCNCC3)c(F)cc2c1=O :: 188.3
C#CCN1C(=O)COc2cc(F)c(N3C(=O)C4=C(CCCC4)C3=O)cc21 :: 183.7
Nc1nc(N)c2nc(-c3ccccc3)c(N)nc2n1 :: 158.3
CCNc1nc(Cl)nc(NCC)n1 :: 144
Fc1ccccc1[C@@H](F)CO[C@H]1CC[C@H](Nc2[nH]cnc3nncc2-3)CC1 :: 187.7
CCCCCCCCCCCCN1CCOCC1 :: 176.3
CC(C)N1C(=O)N(c2ccccc2)CSC1=NC(C)(C)C :: 173.9
CC(C)(O)c1cnn2c(-c3ccc(F)c(-c4c(F)cccc4C#N)c3)cnc2n1 :: 196.4
O=C1C=CC(=O)N1c1ccccc1 :: 135.3

Turning now to a further record.
## Input Could you tell me which collision cross section in nitrogen is on file for Cc1cccc(N)n1 ?
## Output 119.5
